target-under-test: human recombinant LPA1 Lysophospholipid receptor (Homo sapiens)
Sequence (Q92633 whole entry): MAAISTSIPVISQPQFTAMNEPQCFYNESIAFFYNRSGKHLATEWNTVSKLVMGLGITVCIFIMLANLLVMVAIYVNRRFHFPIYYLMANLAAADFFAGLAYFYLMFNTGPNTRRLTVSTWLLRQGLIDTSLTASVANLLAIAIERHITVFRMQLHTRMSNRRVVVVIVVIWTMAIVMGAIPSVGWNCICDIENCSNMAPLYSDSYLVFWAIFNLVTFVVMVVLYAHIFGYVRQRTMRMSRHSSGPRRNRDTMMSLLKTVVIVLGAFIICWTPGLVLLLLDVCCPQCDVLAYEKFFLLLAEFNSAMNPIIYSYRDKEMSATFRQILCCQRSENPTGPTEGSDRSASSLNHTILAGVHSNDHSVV
measurement-description: Calcium flux assay using FLIPR, LPA1 antagonist activity
Assay type: cell-based
assay-setup: @ 30 μM
Tick 1 if inhibition at 30 µM is 60% or greater. Tick -1 if inhibition at 30 µM is less than 60%.

Use these answered entries as a reference point.
> print(dat)
                                smiles.code                         target.under.test  label.class
1  Cc1nnn(-c2ccc(-c3ccc(C(C)(C)C(=O)O)cc3)cc2)c1NC(=O)O[C@H](C)c1ccccc1  human recombinant LPA1 Lysophospholipid receptor (Homo sapiens)            1
2  Cc1nnn(-c2ccc(-c3ccc(CC(=O)O)cc3)cc2)c1NC(=O)O[C@H](C)c1ccccc1  human recombinant LPA1 Lysophospholipid receptor (Homo sapiens)           -1
3  CCc1nnn(-c2ccc(-c3ccc(CC(=O)O)cc3)cc2)c1NC(=O)O[C@H](C)c1ccccc1  human recombinant LPA1 Lysophospholipid receptor (Homo sapiens)            1

We now examine a further molecule.
Could you please find out whether C[C@@H](OC(=O)Nc1nncn1-c1ccc(-c2ccc(C3(C(=O)O)CC3)cc2)cc1)c1ccccc1 has inhibition at 30 µM that meets 60% or exceeds it?
-1
